test system: Escherichia coli; assay: Antimicrobial activity against verona integron-encoded metallo-beta-lactamase-29-producing Escherichia coli 50639799 assessed as reduction in bacterial growth incubated for 48 hrs by microdilution method; type: functional
Parameter MIC: see the listing below.
Measurement label: MIC

| Query smiles | Measured result |
| --- | --- |
| NCCCCN1C(=O)N(CCCCN)C(=O)C(Cc2ccc(F)c3ccccc23)(Cc2ccc(F)c3ccccc23)C1=O.O=C(O)C(F)(F)F.O=C(O)C(F)(F)F | 16 µg/mL |
| N=C(N)NCCCCN1C(=O)N(CCCCNC(=N)N)C(=O)C(Cc2ccc(C(F)(F)F)cc2)(Cc2ccc(C(F)(F)F)cc2)C1=O.O=C(O)C(F)(F)F.O=C(O)C(F)(F)F | 16 µg/mL |
| NCCCCN1C(=O)N(CCCCN)C(=O)C(Cc2cc(Br)cc(Br)c2)(Cc2cc(Br)cc(Br)c2)C1=O.O=C(O)C(F)(F)F.O=C(O)C(F)(F)F | 8 µg/mL |
| NCCCCN1C(=O)N(CCCCN)C(=O)C(Cc2ccc3ccccc3c2)(Cc2ccc3ccccc3c2)C1=O.O=C(O)C(F)(F)F.O=C(O)C(F)(F)F | 16 µg/mL |
| NCCCCN1C(=O)N(CCCCN)C(=O)C(Cc2ccc(Br)c(Cl)c2)(Cc2ccc(Br)c(Cl)c2)C1=O.O=C(O)C(F)(F)F.O=C(O)C(F)(F)F | 16 µg/mL |
| N=C(N)NCCCCN1C(=O)N(CCCCNC(=N)N)C(=O)C(Cc2ccc(Br)c(Cl)c2)(Cc2ccc(Br)c(Cl)c2)C1=O.O=C(O)C(F)(F)F.O=C(O)C(F)(F)F | 4 µg/mL |

----------
assay: Antimicrobial activity against New Delhi metallo-beta lactamase-1 and oxacillinase -181 producing Klebsiella pneumoniae 50531633 assessed as reduction in bacterial growth incubated for 48 hrs by microdilution method; assay type: functional
Measurement label: MIC (µg/mL)

| Query smiles | Display unit | Qualifier operator | Measured result |
| --- | --- | --- | --- |
| NCCCCN1C(=O)N(CCCCN)C(=O)C(Cc2cc(C(F)(F)F)cc(C(F)(F)F)c2)(Cc2cc(C(F)(F)F)cc(C(F)(F)F)c2)C1=O.O=C(O)C(F)(F)F.O=C(O)C(F)(F)F | µg/mL | = | 32 |
| CC(C)(C)c1cc(CC2(Cc3cc(C(C)(C)C)cc(C(C)(C)C)c3)C(=O)N(CCCCNC(=N)N)C(=O)N(CCCCNC(=N)N)C2=O)cc(C(C)(C)C)c1.O=C(O)C(F)(F)F.O=C(O)C(F)(F)F | µg/mL | = | 16 |
| NCCCCN1C(=O)N(CCCCN)C(=O)C(Cc2cc(Br)cc(Br)c2)(Cc2cc(Br)cc(Br)c2)C1=O.O=C(O)C(F)(F)F.O=C(O)C(F)(F)F | µg/mL | = | 8 |
| CC(C)(C)c1cc(CC2(Cc3cc(C(C)(C)C)cc(C(C)(C)C)c3)C(=O)N(CCCCN)C(=O)N(CCCCN)C2=O)cc(C(C)(C)C)c1.O=C(O)C(F)(F)F.O=C(O)C(F)(F)F | µg/mL | = | 8 |
| NCCCCN1C(=O)N(CCCCN)C(=O)C(Cc2ccc(C(F)(F)F)cc2)(Cc2ccc(C(F)(F)F)cc2)C1=O.O=C(O)C(F)(F)F.O=C(O)C(F)(F)F | µg/mL | > | 32 |
| N=C(N)NCCCCN1C(=O)N(CCCCNC(=N)N)C(=O)C(Cc2ccc(F)c3ccccc23)(Cc2ccc(F)c3ccccc23)C1=O.O=C(O)C(F)(F)F.O=C(O)C(F)(F)F | µg/mL | = | 8 |
| N=C(N)NCCCCN1C(=O)N(CCCCNC(=N)N)C(=O)C(Cc2ccc(Br)c(Cl)c2)(Cc2ccc(Br)c(Cl)c2)C1=O.O=C(O)C(F)(F)F.O=C(O)C(F)(F)F | µg/mL | = | 4 |
| NCCCCN1C(=O)N(CCCCN)C(=O)C(Cc2ccc(F)c3ccccc23)(Cc2ccc(F)c3ccccc23)C1=O.O=C(O)C(F)(F)F.O=C(O)C(F)(F)F | µg/mL | = | 16 |
| CC(C)(C)c1ccc(CC2(Cc3ccc(C(C)(C)C)cc3)C(=O)N(CCCCNC(=N)N)C(=O)N(CCCCNC(=N)N)C2=O)cc1.O=C(O)C(F)(F)F.O=C(O)C(F)(F)F | µg/mL | = | 4 |
| N=C(N)NCCCCN1C(=O)N(CCCCNC(=N)N)C(=O)C(Cc2ccc(C(F)(F)F)cc2)(Cc2ccc(C(F)(F)F)cc2)C1=O.O=C(O)C(F)(F)F.O=C(O)C(F)(F)F | µg/mL | > | 32 |
| CC(C)(C)c1ccc(CC2(Cc3ccc(C(C)(C)C)cc3)C(=O)N(CCCCN)C(=O)N(CCCCN)C2=O)cc1.O=C(O)C(F)(F)F.O=C(O)C(F)(F)F | µg/mL | = | 16 |

----------
tested on: Pseudomonas aeruginosa; experiment: Antimicrobial activity against verona integron-encoded metallo-beta-lactamase-2 producing Pseudomonas aeruginosa K34-7 assessed as reduction in bacterial growth incubated for 48 hrs by microdilution method; type: functional

| Query smiles | Study target | MIC, µg/mL |
| --- | --- | --- |
| N=C(N)NCCCCN1C(=O)N(CCCCNC(=N)N)C(=O)C(Cc2cc(C(F)(F)F)cc(C(F)(F)F)c2)(Cc2cc(C(F)(F)F)cc(C(F)(F)F)c2)C1=O.O=C(O)C(F)(F)F.O=C(O)C(F)(F)F | Pseudomonas aeruginosa | 16 |
| CC(C)(C)c1cc(CC2(Cc3cc(C(C)(C)C)cc(C(C)(C)C)c3)C(=O)N(CCCCNC(=N)N)C(=O)N(CCCCNC(=N)N)C2=O)cc(C(C)(C)C)c1.O=C(O)C(F)(F)F.O=C(O)C(F)(F)F | Pseudomonas aeruginosa | 16 |
| N=C(N)NCCCCN1C(=O)N(CCCCNC(=N)N)C(=O)C(Cc2cc(Br)cc(Br)c2)(Cc2cc(Br)cc(Br)c2)C1=O.O=C(O)C(F)(F)F.O=C(O)C(F)(F)F | Pseudomonas aeruginosa | 8 |
| CC(C)(C)c1cc(CC2(Cc3cc(C(C)(C)C)cc(C(C)(C)C)c3)C(=O)N(CCCCN)C(=O)N(CCCCN)C2=O)cc(C(C)(C)C)c1.O=C(O)C(F)(F)F.O=C(O)C(F)(F)F | Pseudomonas aeruginosa | 8 |
| NCCCCN1C(=O)N(CCCCN)C(=O)C(Cc2cc(C(F)(F)F)cc(C(F)(F)F)c2)(Cc2cc(C(F)(F)F)cc(C(F)(F)F)c2)C1=O.O=C(O)C(F)(F)F.O=C(O)C(F)(F)F | Pseudomonas aeruginosa | 32 |

----------
tested on: Acinetobacter baumannii; experiment: Antimicrobial activity against oxacillinase-58 producing Acinetobacter baumannii K12-21 assessed as reduction in bacterial growth incubated for 48 hrs by microdilution method; assay type: functional

| Query smiles | Display unit | MIC |
| --- | --- | --- |
| N=C(N)NCCCCN1C(=O)N(CCCCNC(=N)N)C(=O)C(Cc2cc(Br)cc(Br)c2)(Cc2cc(Br)cc(Br)c2)C1=O.O=C(O)C(F)(F)F.O=C(O)C(F)(F)F | µg/mL | 4 |
| CC(C)(C)c1ccc(CC2(Cc3ccc(C(C)(C)C)cc3)C(=O)N(CCCCNC(=N)N)C(=O)N(CCCCNC(=N)N)C2=O)cc1.O=C(O)C(F)(F)F.O=C(O)C(F)(F)F | µg/mL | 4 |
| N=C(N)NCCCCN1C(=O)N(CCCCNC(=N)N)C(=O)C(Cc2ccc(F)c3ccccc23)(Cc2ccc(F)c3ccccc23)C1=O.O=C(O)C(F)(F)F.O=C(O)C(F)(F)F | µg/mL | 8 |
| NCCCCN1C(=O)N(CCCCN)C(=O)C(Cc2ccc(Br)c(Cl)c2)(Cc2ccc(Br)c(Cl)c2)C1=O.O=C(O)C(F)(F)F.O=C(O)C(F)(F)F | µg/mL | 32 |

----------
test system: Pseudomonas aeruginosa; experiment: Antimicrobial activity against verona integron-encoded metallo-beta-lactamase-2 producing Pseudomonas aeruginosa K34-7 assessed as reduction in bacterial growth incubated for 48 hrs by microdilution method; assay type: functional
Parameter MIC: see the listing below.
Measurement label: MIC

| Query smiles | Measurement label | Measured result |
| --- | --- | --- |
| N=C(N)NCCCCN1C(=O)N(CCCCNC(=N)N)C(=O)C(Cc2ccc3ccccc3c2)(Cc2ccc3ccccc3c2)C1=O.O=C(O)C(F)(F)F.O=C(O)C(F)(F)F | MIC | 32 µg/mL |
| NCCCCN1C(=O)N(CCCCN)C(=O)C(Cc2ccc(C(F)(F)F)cc2)(Cc2ccc(C(F)(F)F)cc2)C1=O.O=C(O)C(F)(F)F.O=C(O)C(F)(F)F | MIC | > 32 µg/mL |
| N=C(N)NCCCCN1C(=O)N(CCCCNC(=N)N)C(=O)C(Cc2ccc(F)c3ccccc23)(Cc2ccc(F)c3ccccc23)C1=O.O=C(O)C(F)(F)F.O=C(O)C(F)(F)F | MIC | 16 µg/mL |
| NCCCCN1C(=O)N(CCCCN)C(=O)C(Cc2ccc3ccccc3c2)(Cc2ccc3ccccc3c2)C1=O.O=C(O)C(F)(F)F.O=C(O)C(F)(F)F | MIC | 32 µg/mL |
| CC(C)(C)c1ccc(CC2(Cc3ccc(C(C)(C)C)cc3)C(=O)N(CCCCN)C(=O)N(CCCCN)C2=O)cc1.O=C(O)C(F)(F)F.O=C(O)C(F)(F)F | MIC | > 32 µg/mL |
